- experimentDescription: in vitro
- condition: human, human plasma
reportedEndpoint: remaining at 0.5 h, 100 μM

N=C(N)NCCC[C@@H]1NC(=O)[C@H](CCCNC(=N)N)NC(=O)[C@H](CCCNC(=N)N)NC(=O)[C@H](Cc2c[nH]c3ccccc23)NC(=O)[C@H](Cc2c[nH]c3ccccc23)NC(=O)[C@H](Cc2c[nH]c3ccccc23)NC(=O)[C@H](Cc2c[nH]c3ccccc23)NC(=O)[C@H](CCCNC(=N)N)NC(=O)[C@H](CCCNC(=N)N)NC1=O [5a, [R5W4]]    ~79%

====

Some compounds, each annotated with its measured MIC.
- Test system: S. aureus (ATCC BAA-1556)
- experimentDescription: Synergistic checkerboard assay
- Assay type: cell-based
- condition: Staphylococcus aureus, ATCCBAA1556; checkerboard; read-out: MIC antibiotic alone
reportedEndpoint: MIC

O=C(O)c1cn(C2CC2)c2cc(N3CCNCC3)c(F)cc2c1=O [ciprofloxacin]    16 µg/mL
Cc1ncc([N+](=O)[O-])n1CCO [metronidazole]    32 µg/mL
NC[C@H]1O[C@H](O[C@H]2[C@H](O)[C@@H](O[C@H]3O[C@H](CO)[C@@H](O)[C@H](N)[C@H]3O)[C@H](N)C[C@@H]2N)[C@H](N)C[C@@H]1O [tobramycin]    0.5 µg/mL
C[C@@H](O)[C@H]1C(=O)N2C(C(=O)O)=C(S[C@@H]3CN[C@H](C(=O)N(C)C)C3)[C@H](C)[C@H]12 [meropenem]    2 µg/mL
CN(C)[C@@H]1C(O)=C(C(N)=O)C(=O)[C@@]2(O)C(O)=C3C(=O)c4c(O)cccc4[C@@](C)(O)[C@H]3C[C@@H]12 [tetracycline]    0.25 µg/mL

====

- Test system: human red blood cells (hRBCs)
- condition: red cells of human, 2 h
Peptide text beside a SMILES is read from it.
reportedEndpoint: HC50 (µg/mL)

N=C(N)NCCC[C@@H]1NC(=O)[C@H](CCCNC(=N)N)NC(=O)[C@H](CCCNC(=N)N)NC(=O)[C@H](CCCNC(=N)N)NC(=O)[C@H](Cc2c[nH]c3ccccc23)NC(=O)[C@H](Cc2c[nH]c3ccccc23)NC(=O)[C@H](Cc2c[nH]c3ccccc23)NC(=O)[C@H](Cc2c[nH]c3ccccc23)NC(=O)[C@H](Cc2c[nH]c3ccccc23)NC(=O)[C@H](Cc2c[nH]c3ccccc23)NC(=O)[C@H](Cc2c[nH]c3ccccc23)NC(=O)[C@H](CCCNC(=N)N)NC(=O)[C@H](CCCNC(=N)N)NC1=O [6d, [R6W7]] (cyclo(RRRRRRWWWWWWW))    85

====

MIC MRSA values, listed per item
- System: MRSA (ATCC BAA-1556)
- Parameters: unit not given beside the values
- condition: supplementary csv, unit not given
Peptide text beside a SMILES is read from it.
reportedEndpoint: MIC MRSA

N=C(N)NCCC[C@@H]1NC(=O)[C@H](CCCNC(=N)N)NC(=O)[C@H](Cc2c[nH]c3ccccc23)NC(=O)[C@H](Cc2c[nH]c3ccccc23)NC(=O)[C@H](Cc2c[nH]c3ccccc23)NC(=O)[C@H](Cc2c[nH]c3ccccc23)NC(=O)[C@H](Cc2c[nH]c3ccccc23)NC(=O)[C@H](Cc2c[nH]c3ccccc23)NC(=O)[C@H](Cc2c[nH]c3ccccc23)NC(=O)[C@H](CCCNC(=N)N)NC1=O [3e, [R3W7]] (cyclo(RRRWWWWWWW))    256
N=C(N)NCCC[C@@H]1NC(=O)[C@H](CCCNC(=N)N)NC(=O)[C@H](Cc2c[nH]c3ccccc23)NC(=O)[C@H](Cc2c[nH]c3ccccc23)NC(=O)[C@H](Cc2c[nH]c3ccccc23)NC(=O)[C@H](Cc2c[nH]c3ccccc23)NC1=O [2b, [R2W4]] (cyclo(RRWWWW); ring closure inferred)    64
N=C(N)NCCC[C@@H]1NC(=O)[C@H](CCCNC(=N)N)NC(=O)[C@H](CCCNC(=N)N)NC(=O)[C@H](CCCNC(=N)N)NC(=O)[C@H](Cc2c[nH]c3ccccc23)NC(=O)[C@H](Cc2c[nH]c3ccccc23)NC(=O)[C@H](Cc2c[nH]c3ccccc23)NC(=O)[C@H](Cc2c[nH]c3ccccc23)NC(=O)[C@H](Cc2c[nH]c3ccccc23)NC(=O)[C@H](Cc2c[nH]c3ccccc23)NC(=O)[C@H](Cc2c[nH]c3ccccc23)NC(=O)[C@H](CCCNC(=N)N)NC(=O)[C@H](CCCNC(=N)N)NC1=O [6d, [R6W7]] (cyclo(RRRRRRWWWWWWW))    64
N=C(N)NCCC[C@@H]1NC(=O)[C@H](CCCNC(=N)N)NC(=O)[C@H](CCCNC(=N)N)NC(=O)[C@H](Cc2c[nH]c3ccccc23)NC(=O)[C@H](Cc2c[nH]c3ccccc23)NC(=O)[C@H](Cc2c[nH]c3ccccc23)NC(=O)[C@H](Cc2c[nH]c3ccccc23)NC(=O)[C@H](Cc2c[nH]c3ccccc23)NC(=O)[C@H](Cc2c[nH]c3ccccc23)NC(=O)[C@H](CCCNC(=N)N)NC1=O [4c, [R4W6]]    128
N=C(N)NCCC[C@@H]1NC(=O)[C@H](CCCNC(=N)N)NC(=O)[C@H](CCCNC(=N)N)NC(=O)[C@H](CCCNC(=N)N)NC(=O)[C@H](Cc2c[nH]c3ccccc23)NC(=O)[C@H](Cc2c[nH]c3ccccc23)NC(=O)[C@H](Cc2c[nH]c3ccccc23)NC(=O)[C@H](Cc2c[nH]c3ccccc23)NC(=O)[C@H](Cc2c[nH]c3ccccc23)NC(=O)[C@H](CCCNC(=N)N)NC(=O)[C@H](CCCNC(=N)N)NC(=O)[C@H](CCCNC(=N)N)NC1=O [7b, [R7W5]] (cyclo(RRRRRRRWWWWW))    8
N=C(N)NCCC[C@@H]1NC(=O)[C@H](CCCNC(=N)N)NC(=O)[C@H](CCCNC(=N)N)NC(=O)[C@H](CCCNC(=N)N)NC(=O)[C@H](Cc2c[nH]c3ccccc23)NC(=O)[C@H](Cc2c[nH]c3ccccc23)NC(=O)[C@H](Cc2c[nH]c3ccccc23)NC(=O)[C@H](Cc2c[nH]c3ccccc23)NC(=O)[C@H](CCCNC(=N)N)NC(=O)[C@H](CCCNC(=N)N)NC(=O)[C@H](CCCNC(=N)N)NC1=O [7a, [R7W4]] (cyclo(RRRRRRRWWWW))    16

// data source = paper PMC9743092
